# Test system: U2OS
# procedure_text: maximum observed lethal fraction; higher = more cell death;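 note: FLICK assay: SYTOX Green fluorescence of dead cells tracked over time after drugging in 96-well plates, with total cell counts taken from Triton X-100 lysed wells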
# study_conditions: 0.0316 µM
Listed here: items and their measured maximum observed lethal fraction.

| molecule | maximum observed lethal fraction |
| --- | --- |
| C#C[C@@]1(O)[C@@H](CO)O[C@@H](n2ccc(N)nc2=O)[C@@H]1O [Ethynylcytidine] | 0.0612 |

QUERY: Which maximum observed lethal fraction value is on record for Cc1[nH]c2ccccc2c1CCNCc1ccc(/C=C/C(=O)NO)cc1 [Panobinostat] ?
RESULT: 0.655

QUERY: Likewise for CN(C)C/C=C/C(=O)Nc1ccc(C(=O)Nc2cccc(Nc3ncc(Cl)c(-c4c[nH]c5ccccc45)n3)c2)cc1 [THZ1] ?
RESULT: 0.274

QUERY: Likewise for COC(=O)C[C@](O)(CCCC(C)(C)O)C(=O)O[C@@H]1C(OC)=C[C@]23CCCN2CCc2cc4c(cc2[C@H]13)OCO4 [Homoharringtonine] ?
RESULT: 0.0942

----------
# System: U2OS BCL2L12-KO
# procedure_text: maximum observed lethal fraction; higher = more cell death
# study_conditions: 0.1 µM
Label scheme for maximum observed lethal fraction: band A = under 0.07, band B = from 0.07 up to 0.08, band C = 0.08 and over

Please review the following examples before continuing.
| smiles_str | class_name |
| --- | --- |
| CN(C)CC[C@H](CSc1ccccc1)Nc1ccc(S(=O)(=O)NC(=O)c2ccc(N3CCN(Cc4ccccc4-c4ccc(Cl)cc4)CC3)cc2)cc1[N+](=O)[O-] | band B |
| CCN1CCN(Cc2ccc(Nc3ncc(F)c(-c4cc(F)c5nc(C)n(C(C)C)c5c4)n3)nc2)CC1 | band B |
| CC(C)C[C@H](NC(=O)[C@H](Cc1ccccc1)NC(=O)c1cnccn1)B(O)O | band C |
| C#C[C@@]1(O)[C@@H](CO)O[C@@H](n2ccc(N)nc2=O)[C@@H]1O | band C |
| CNCc1ccc(-c2[nH]c3cc(F)cc4c3c2CCNC4=O)cc1 | band A |
| C=CC(=O)Nc1ccc(C(=O)Nc2[nH]nc3c2CN(C(=O)N[C@H](CN(C)C)c2ccccc2)C3(C)C)cc1 | band B |
| CN[C@@H]1C[C@H]2O[C@@](C)([C@@H]1OC)n1c3ccccc3c3c4c(c5c6ccccc6n2c5c31)C(=O)NC4 | band C |

Proceed to the following item.
QUERY: Which maximum observed lethal fraction band matches "O=C(CCCCCCC(=O)Nc1ccccc1)NO" ?
RESULT: band A

----------
# Test system: U2OS PTBP1-KO
# procedure_text: maximum observed lethal fraction; higher = more cell death
# study_conditions: 3.16 µM
Listed here: items and their measured maximum observed lethal fraction.
The answer should be written as a number, with no unit following it.

| smiles_str | maximum observed lethal fraction |
| --- | --- |
| O=C(O)C1(C(=O)O)CCC1.[NH2-].[NH2-].[Pt+2] | 0.0647 |
| CN(C)C/C=C/C(=O)Nc1ccc(C(=O)Nc2cccc(Nc3ncc(Cl)c(-c4c[nH]c5ccccc45)n3)c2)cc1 | 0.627 |
| CN(C)CC[C@H](CSc1ccccc1)Nc1ccc(S(=O)(=O)NC(=O)c2ccc(N3CCN(Cc4ccccc4-c4ccc(Cl)cc4)CC3)cc2)cc1[N+](=O)[O-] | 0.13 |

QUERY: Which maximum observed lethal fraction value is on record for "CCN1CCN(Cc2ccc(Nc3ncc(F)c(-c4cc(F)c5nc(C)n(C(C)C)c5c4)n3)nc2)CC1" ?
RESULT: 0.257

QUERY: Likewise for "CC1(C)CCC(CN2CCN(c3ccc(C(=O)NS(=O)(=O)c4ccc(NCC5CCOCC5)c([N+](=O)[O-])c4)c(Oc4cnc5[nH]ccc5c4)c3)CC2)=C(c2ccc(Cl)cc2)C1" ?
RESULT: 0.0671

QUERY: Likewise for "C/C=C(/C)C(=O)O[C@H]1C(C)=C2[C@H]([C@@H]1OC(=O)CCCCCCC)[C@@](C)(OC(C)=O)C[C@H](OC(=O)CCC)[C@@]1(O)[C@H]2OC(=O)[C@@]1(C)O" ?
RESULT: 0.48
